Entry source: PubChem BioAssay AID1645864

- subjectOfTest: Ubiquitin carboxyl-terminal hydrolase 17-like protein 5 (Homo sapiens)
- assayComment: ubiquitin-specific protease 17 DUB inhibitors, concentration-effect assay, cell-free, verification of initial screening actives (AID 1645864)
- measurementContext: purified USP17, ubiquitin-rhodamine cleavage fluorescence, 3 h
Calls of active or inactive are those of the source.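 How the source made its calls: active means maximal inhibition of USP17 at or above 30% in the confirmation dose-response, a value not among the printed readouts; inactive means the rest.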
measurementName: IC50

// query Ubiquitin carboxyl-terminal hydrolase 17-like protein 5 (Homo sapiens) / IC50 / "CCN1C(SCc2ccccc2F)=NS(=O)(=O)c2ccccc21" : value?
// result > 50 µM (inactive)

// query # get_value(readout= IC50, system= Ubiquitin carboxyl-terminal hydrolase 17-like protein 5 (Homo sapiens)) for "Cc1nc(NCc2ccccn2)c2cc(-c3ccccc3)sc2n1"
// result 24.7 µM

// query Kindly state the measured IC50 obtained for "Cc1cnc2nc3c(cc2c1)CN(CCc1ccc(Cl)cc1)CC3" with Ubiquitin carboxyl-terminal hydrolase 17-like protein 5 (Homo sapiens).
// result > 50 µM (inactive)
